Consider the following molecules; for each one, report its IC50.
measurement_target: Human ACC2 (Homo sapiens, UniProt O00763)
Construct: made in house; host or cells: SF-9 insect cells (baculovirus, pFAST-BacHTa)
Sequence (O00763 117-2458 limits assumed): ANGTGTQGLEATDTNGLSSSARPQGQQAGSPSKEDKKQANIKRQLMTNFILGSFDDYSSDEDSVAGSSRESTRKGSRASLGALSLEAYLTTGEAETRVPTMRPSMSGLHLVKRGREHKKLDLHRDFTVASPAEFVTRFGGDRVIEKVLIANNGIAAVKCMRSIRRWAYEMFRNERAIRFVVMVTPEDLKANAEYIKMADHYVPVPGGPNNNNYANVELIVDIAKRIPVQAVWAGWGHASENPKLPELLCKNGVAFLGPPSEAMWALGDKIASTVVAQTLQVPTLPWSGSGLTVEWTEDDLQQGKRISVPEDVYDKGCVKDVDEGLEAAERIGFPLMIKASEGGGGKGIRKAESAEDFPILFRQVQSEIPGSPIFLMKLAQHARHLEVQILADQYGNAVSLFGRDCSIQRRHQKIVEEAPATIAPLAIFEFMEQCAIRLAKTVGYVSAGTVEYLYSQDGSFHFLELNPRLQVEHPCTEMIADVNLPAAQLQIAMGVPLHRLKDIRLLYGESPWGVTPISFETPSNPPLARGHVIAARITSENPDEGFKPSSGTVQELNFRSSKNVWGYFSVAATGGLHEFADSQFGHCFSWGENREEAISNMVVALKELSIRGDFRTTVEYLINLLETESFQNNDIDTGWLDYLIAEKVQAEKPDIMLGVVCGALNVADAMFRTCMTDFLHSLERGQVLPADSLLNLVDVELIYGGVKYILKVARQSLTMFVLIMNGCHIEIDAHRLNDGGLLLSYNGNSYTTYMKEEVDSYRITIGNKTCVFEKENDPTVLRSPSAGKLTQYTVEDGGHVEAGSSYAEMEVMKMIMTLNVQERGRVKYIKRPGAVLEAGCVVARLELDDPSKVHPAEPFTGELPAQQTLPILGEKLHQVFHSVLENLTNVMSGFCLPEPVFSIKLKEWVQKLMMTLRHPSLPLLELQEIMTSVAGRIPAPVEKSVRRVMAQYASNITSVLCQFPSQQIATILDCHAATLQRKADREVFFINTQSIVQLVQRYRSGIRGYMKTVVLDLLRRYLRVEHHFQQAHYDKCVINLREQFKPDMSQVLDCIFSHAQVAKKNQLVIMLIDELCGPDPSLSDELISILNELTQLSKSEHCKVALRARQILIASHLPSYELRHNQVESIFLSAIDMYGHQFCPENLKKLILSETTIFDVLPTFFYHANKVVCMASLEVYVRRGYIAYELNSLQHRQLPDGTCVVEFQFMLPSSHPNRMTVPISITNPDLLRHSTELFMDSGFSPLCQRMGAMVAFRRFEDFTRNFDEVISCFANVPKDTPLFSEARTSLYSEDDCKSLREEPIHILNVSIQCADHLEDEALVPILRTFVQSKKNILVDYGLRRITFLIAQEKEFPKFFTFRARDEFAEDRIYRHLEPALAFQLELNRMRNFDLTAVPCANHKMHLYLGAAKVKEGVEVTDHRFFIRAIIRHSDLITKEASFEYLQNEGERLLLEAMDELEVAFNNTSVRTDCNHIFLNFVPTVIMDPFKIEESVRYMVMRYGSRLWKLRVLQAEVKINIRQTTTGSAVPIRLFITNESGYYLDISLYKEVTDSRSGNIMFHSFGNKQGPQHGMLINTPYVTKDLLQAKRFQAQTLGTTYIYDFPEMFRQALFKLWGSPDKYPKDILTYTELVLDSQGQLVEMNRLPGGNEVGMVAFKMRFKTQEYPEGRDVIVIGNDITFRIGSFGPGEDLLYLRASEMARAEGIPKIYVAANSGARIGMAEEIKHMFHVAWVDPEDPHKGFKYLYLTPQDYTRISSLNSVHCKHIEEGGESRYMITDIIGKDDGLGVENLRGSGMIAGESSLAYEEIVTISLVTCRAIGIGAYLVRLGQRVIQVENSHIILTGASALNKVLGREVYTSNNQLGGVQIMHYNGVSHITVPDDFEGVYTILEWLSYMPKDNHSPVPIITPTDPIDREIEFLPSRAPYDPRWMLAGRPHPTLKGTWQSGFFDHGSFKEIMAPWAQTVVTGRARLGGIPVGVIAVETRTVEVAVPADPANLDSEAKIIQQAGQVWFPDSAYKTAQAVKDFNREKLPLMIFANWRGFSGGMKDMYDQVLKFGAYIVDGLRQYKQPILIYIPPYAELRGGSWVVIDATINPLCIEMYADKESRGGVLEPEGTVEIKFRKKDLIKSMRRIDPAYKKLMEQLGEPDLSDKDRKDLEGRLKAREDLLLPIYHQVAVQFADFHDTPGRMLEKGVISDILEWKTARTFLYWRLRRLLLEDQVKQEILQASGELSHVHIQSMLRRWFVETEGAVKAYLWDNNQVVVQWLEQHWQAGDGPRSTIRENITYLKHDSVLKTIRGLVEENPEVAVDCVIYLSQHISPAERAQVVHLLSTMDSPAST
assay_text: In vitro enzymatic ACC activity assay (malachite green), ACC2
Assay type: biochemical
condition_description: recombinant His-tagged enzyme, absorbance at 620 nm

INSERT INTO results (molecule, measurement_target, result) VALUES
  ('CCNC(=O)Nc1sc2ccccc2c1C(=O)N1CCN(S(=O)(=O)c2ccc3c(c2)NC(=O)C3)CC1', 'Human ACC2 (Homo sapiens, UniProt O00763)', '< 5 µM');

List the reported IC50 of each molecule below.
1. CCNC(=O)Nc1sc2ccccc2c1C(=O)N1CCN(S(=O)(=O)CCC(=O)N(CC)CC)CC1
2. CCNC(=O)Nc1sc2ccccc2c1C(=O)N1CCN(S(=O)(=O)c2cccc(S(C)(=O)=O)c2)CC1
3. CCNC(=O)Nc1sc2ccccc2c1C(=O)N1CCN(S(=O)(=O)c2cccc([N+](=O)[O-])c2)CC1
4. CCNC(=O)Nc1sc2ccccc2c1C(=O)N1CCN(S(=O)(=O)c2ccc3nsnc3c2)CC1
5. CCNC(=O)Nc1sc2ccccc2c1C(=O)N1CCC(S(=O)(=O)c2ccc3c(c2)OCO3)CC1

Response:
1. 5 to 50 µM
2. 5 to 50 µM
3. > 50 µM
4. > 50 µM
5. > 50 µM

====

Consider the following molecules; for each one, report its IC50.
measurement_target: Human ACC1 (Homo sapiens)
Construct: made in house; host or cells: SF-9 insect cells (baculovirus, pFAST-BacHTc)
assay_text: In vitro enzymatic ACC activity assay (malachite green), ACC1
Type: biochemical
condition_description: recombinant His-tagged enzyme, absorbance at 620 nm

INSERT INTO measurements (molecule, result_type, result) VALUES
  ('CCNC(=O)Nc1sc2ccccc2c1C(=O)N1CCN(S(=O)(=O)c2cccc(-c3noc(C)n3)c2)CC1', 'IC50', '< 5 µM'),
  ('CCNC(=O)Nc1sc2ccccc2c1C(=O)N1CCN(S(=O)(=O)CCC(=O)N(CC)CC)CC1', 'IC50', '5 to 50 µM'),
  ('CCNC(=O)Nc1sc2ccccc2c1C(=O)N1CCN(S(=O)(=O)c2ccc3nsnc3c2)CC1', 'IC50', '> 50 µM');

Prompt: Need IC50, item CCNC(=O)Nc1sc2ccccc2c1C(=O)N1CCC([S+]([O-])c2cccc(OC(F)(F)F)c2)CC1 (stereo not shown)
Response: > 50 µM

====

Consider the following compounds; for each one, report its IC50.
measurement_target: Human ACC2 (Homo sapiens)
Construct: made in house; host or cells: SF-9 insect cells (baculovirus, pFAST-BacHTa)
assay_text: In vitro enzymatic ACC activity assay (malachite green), ACC2
Assay type: biochemical
condition_description: recombinant His-tagged enzyme, absorbance at 620 nm

INSERT INTO measurements (compound, result) VALUES
  ('CCNC(=O)Nc1sc2ccccc2c1C(=O)N1CCC([S+]([O-])c2cccc(OC)c2)CC1 (stereo not shown)', '5 to 50 µM'),
  ('CCNC(=O)Nc1sc2ccccc2c1C(=O)N1CCN(S(=O)(=O)CC(C)C)CC1', '5 to 50 µM'),
  ('CCNC(=O)Nc1sc2ccccc2c1C(=O)N1CCN(S(=O)(=O)c2cccc(-c3nnc(C)o3)c2)CC1', '5 to 50 µM');

List the reported IC50 of each compound below.
1. CCNC(=O)Nc1sc2ccccc2c1C(=O)N1CCN(S(=O)(=O)c2ccc(OC)c(OC)c2)CC1
2. CCNC(=O)Nc1sc2ccccc2c1C(=O)N1CCN(S(=O)(=O)c2ccccc2)CC1
3. CCNC(=O)Nc1sc2ccccc2c1C(=O)N1CCN(S(=O)(=O)c2ccc(S(C)(=O)=O)cc2)CC1
4. CCNC(=O)Nc1sc2ccccc2c1C(=O)N1CCN(S(=O)(=O)c2ccc3[nH]c(=O)[nH]c3c2)CC1
5. CCNC(=O)Nc1sc2ccccc2c1C(=O)N1CCN(S(=O)(=O)c2cccc(-c3ccnc(C)n3)c2)CC1
6. CCNC(=O)Nc1sc2ccccc2c1C(=O)N1CCN(S(=O)(=O)c2ccccc2C#N)CC1

Response:
1. < 5 µM
2. > 50 µM
3. 5 to 50 µM
4. < 5 µM
5. < 5 µM
6. > 50 µM

List the reported IC50 of each compound below.
1. CCNC(=O)Nc1sc2ccccc2c1C(=O)N1CCN(S(=O)(=O)CCC(=O)N2CCOCC2)CC1
2. CCNC(=O)Nc1sc2ccccc2c1C(=O)N1CCN(S(=O)(=O)c2ccc3c(c2)OCO3)CC1
3. CCNC(=O)Nc1sc2ccccc2c1C(=O)N1CCN(S(=O)(=O)c2ccc(N3CCOCC3)nc2)CC1

Response:
5 to 50 µM
5 to 50 µM
< 5 µM

List the reported IC50 of each compound below.
1. CCNC(=O)Nc1sc2ccccc2c1C(=O)N1CCN(S(=O)(=O)c2cccc(-c3csc(C)n3)c2)CC1
2. CCNC(=O)Nc1sc2ccccc2c1C(=O)N1CCN(S(=O)(=O)c2ccc(Cl)c(S(N)(=O)=O)c2)CC1
3. CCNC(=O)Nc1sc2ccccc2c1C(=O)N1CCN(S(=O)(=O)CCC(=O)OCC)CC1
4. CCNC(=O)Nc1sc2ccccc2c1C(=O)N1CCN(S(C)(=O)=O)CC1
5. CCNC(=O)Nc1sc2ccccc2c1C(=O)N1CCN(S(=O)(=O)CCC(=O)N2CCCC2)CC1
6. CCNC(=O)Nc1sc2ccccc2c1C(=O)N1CCN(S(=O)(=O)C2CCS(=O)(=O)C2)CC1 (stereo not shown)

Response:
["5 to 50 µM", "< 5 µM", "5 to 50 µM", "> 50 µM", "5 to 50 µM", "5 to 50 µM"]

====

measurement_target: Human ACC2 (Homo sapiens, UniProt O00763)
Construct: made in house; host or cells: SF-9 insect cells (baculovirus, pFAST-BacHTa)
assay_text: In vitro enzymatic ACC activity assay (malachite green), ACC2
Format: biochemical
condition_description: recombinant His-tagged enzyme, absorbance at 620 nm
result_type: IC50

The cases that follow already have their IC50 on record.
INSERT INTO assay_data (smiles_code, result_type, result) VALUES
  ('CCNC(=O)Nc1sc2ccccc2c1C(=O)N1CCN(S(=O)(=O)c2ccc3oc(=O)[nH]c3c2)CC1', 'IC50', '5 to 50 µM'),
  ('CCNC(=O)Nc1sc2ccccc2c1C(=O)N1CCN(S(=O)(=O)c2ccc(NC(C)=O)cc2)CC1', 'IC50', '< 5 µM'),
  ('CCNC(=O)Nc1sc2ccccc2c1C(=O)N1CCN(S(=O)(=O)CCC(F)(F)F)CC1', 'IC50', '5 to 50 µM');

Next item in the queue.
Prompt: Need IC50, item CCNC(=O)Nc1sc2ccccc2c1C(=O)N1CCN(S(=O)(=O)c2cccc(OC(F)(F)F)c2)CC1
Response: > 50 µM
